- target: human recombinant 5-HT2A receptor (Homo sapiens, UniProt P28223)
- Construct: expressed in transfected cells; host or cells: Jump-In HEK cells (membrane preparation)
- Sequence (P28223 whole entry): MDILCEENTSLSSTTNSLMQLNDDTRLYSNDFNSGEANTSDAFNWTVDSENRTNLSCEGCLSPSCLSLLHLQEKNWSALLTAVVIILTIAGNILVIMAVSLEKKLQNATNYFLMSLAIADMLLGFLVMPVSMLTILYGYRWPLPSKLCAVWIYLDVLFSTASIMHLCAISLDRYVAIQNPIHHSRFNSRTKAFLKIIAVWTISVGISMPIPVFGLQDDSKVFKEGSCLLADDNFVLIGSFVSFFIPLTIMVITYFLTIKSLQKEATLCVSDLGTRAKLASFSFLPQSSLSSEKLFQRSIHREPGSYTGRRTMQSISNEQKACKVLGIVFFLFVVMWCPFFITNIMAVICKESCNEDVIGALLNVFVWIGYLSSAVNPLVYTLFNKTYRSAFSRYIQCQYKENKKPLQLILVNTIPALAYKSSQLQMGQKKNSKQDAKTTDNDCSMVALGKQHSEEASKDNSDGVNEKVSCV
- measurement-protocol: Test Example 1-2: 5-HT2A receptor binding inhibition test ([3H]-Ketanserin; non-specific ligand Ketanserin)
- experimental-setup: [3H]-Ketanserin; non-specific binding with 500 µmol/L Ketanserin; room temperature (25°C), 1.5 hours; read-out: h 5-HT2A Ki
metric-name: Ki (nM)

stdin: Look up and report measured Ki (human recombinant 5-HT2A receptor (Homo sapiens, UniProt P28223)) for the following compound: Cn1ncc(Br)c1-c1cc(Nc2ccc(Cl)cn2)cnc1OCCO
stdout: 0.325

stdin: Look up and report measured Ki (human recombinant 5-HT2A receptor (Homo sapiens, UniProt P28223)) for the following compound: COCc1nc(C)c(-c2cc(Nc3ncc(C(F)(F)F)cc3F)c(F)cc2OCCO)c(C)n1
stdout: 3.84

stdin: Look up and report measured Ki (human recombinant 5-HT2A receptor (Homo sapiens, UniProt P28223)) for the following compound: COCc1nc(C)c(-c2nc(Nc3ccc(C(F)(F)F)c(C)n3)c(F)cc2OCCO)c(C)n1
stdout: 1.74

stdin: Look up and report measured Ki (human recombinant 5-HT2A receptor (Homo sapiens, UniProt P28223)) for the following compound: Cc1cc(OC(F)(F)F)cnc1Nc1cc(-c2c(Br)cnn2C)c(OCCO)cn1
stdout: 0.278

stdin: Look up and report measured Ki (human recombinant 5-HT2A receptor (Homo sapiens, UniProt P28223)) for the following compound: CCc1ncccc1-c1cc(Nc2ncc(C(F)(F)F)cc2F)ncc1OCCO
stdout: 1.97

[P] Cn1ncc(Cl)c1-c1cc(Nc2ncc(Cl)cc2F)ccc1OCCO
[Q] Cn1ncc(C#N)c1-c1cc(Nc2ncc(C(F)(F)F)cc2F)cc(F)c1OCCO
stdin: Please indicate which item has the smaller measured Ki: P versus Q Lab log: write the label of the selected item as the result.
stdout: P
(P: 0.167 nM, Q: 0.375 nM)

[A] Cc1nc(OC2COC2)nc(C)c1-c1cc(Nc2ncc(C(F)(F)F)cc2Cl)ncc1OCCO
[B] Cn1ncc(Br)c1-c1cc(Nc2cc(C(F)(F)F)ccn2)c(F)cc1OCCO
[C] C[C@H](CO)Oc1cnc(Nc2ncc(C(F)(F)F)cc2F)cc1-c1cccc2c1CNC2=O
[D] COCc1nc(C)c(-c2cc(Nc3ncc(-c4ncc(Cl)cn4)cc3Cl)ncc2OCCO)c(C)n1
stdin: List from greatest to least Ki. Provide your answer as the labels ordered per the instruction.
stdout: D, A, C, B
(D: 2.3 nM, A: 1.39 nM, C: 0.924 nM, B: 0.225 nM)

[A] C=Cc1cnn(C)c1-c1cc(Nc2ncc(C(F)(F)F)cc2F)ccc1OCCO
[B] Cn1ncc(Br)c1-c1cc(Nc2nc3cc(F)ccc3n2C)ccc1OCCO
[C] COCc1nc(C)c(-c2cc(Nc3ncc(-c4nc(C(F)(F)F)co4)cc3Cl)ncc2OCCO)c(C)n1
stdin: List from greatest to least Ki. Provide your answer as the labels ordered per the instruction.
stdout: C, B, A
(C: 2.05 nM, B: 0.497 nM, A: 0.291 nM)
